Cited source for all entries: paper PMC10740580

Target or system Candida albicans 10231; recorded quantity MIC.
// return numeric value only (unit: µg/mL, not printed)

Worked cases, answers included:
Molecule	Measurement Type	Measured Result
COc1cc2nc(N3C(=O)c4ccccc4C3=O)sc2cc1OC	MIC	32
C[C@@H]1[C@H](O)[C@@H](C)/C=C/C=C/C=C/C=C/C=C/C=C/C=C/[C@H](O[C@@H]2O[C@H](C)[C@@H](O)[C@H](N)[C@@H]2O)C[C@@H]2O[C@](O)(C[C@@H](O)C[C@@H](O)[C@H](O)CC[C@@H](O)C[C@@H](O)CC(=O)O[C@H]1C)C[C@H](O)[C@H]2C(=O)O [amph B, amphotericin B, reference compound]	MIC	2

q: What value of MIC has been reported for the following molecule? `O=C1c2ccccc2C(=O)N1c1nc2ccc(C(F)(F)F)cc2s1`
a: 64

q: Lookup `COc1ccc2nc(N3C(=O)c4ccccc4C3=O)sc2c1`
a: 64

q: Lookup `O=C1c2ccccc2C(=O)N1c1nc2ccc(F)cc2s1`
a: 64

q: Lookup `O=C1c2ccccc2C(=O)N1c1nc2ccc(O)cc2s1`
a: 32

q: Lookup `O=C1c2ccccc2C(=O)N1c1nc2ccc(Oc3ccccc3)cc2s1`
a: 32

q: Lookup `O=C1c2ccccc2C(=O)N1c1nc2ccccc2s1`
a: 64

----------
test system: BALB/3T3 cells; test: MTT assay, BALB/3T3 fibroblasts; format: cell-based; conditions: mouse fibroblasts, read-out: IC50 BALB/3T3 (MTT, lack of toxicity)
Measurement Type: IC50

q: What measured IC50 is associated with O=C1c2ccccc2C(=O)N1c1nc2ccc(Oc3ccccc3)cc2s1 [3h] on BALB/3T3 cells?
a: > 200 µM

----------
test system: Enterococcus faecalis 29212; assay: Broth microdilution, E. faecalis ATCC 29212; type: cell-based; conditions: 24 h, 37 °C, read-out: MIC E.f. 29212
Below, each entry is listed alongside its reported MIC.
// return numeric value only (unit: µg/mL, not printed)

Worked cases, answers included:
>>> df
                                   compound                 assay_system  measured_result
0       O=C1c2ccccc2C(=O)N1c1nc2ccc(F)cc2s1  Enterococcus faecalis 29212               64
1    COc1cc2nc(N3C(=O)c4ccccc4C3=O)sc2cc1OC  Enterococcus faecalis 29212               32
2  C[C@H]1COc2c(N3CCN(C)CC3)c(F)cc3c(=O)c(C(=O)O)cn1c23 [levofloxacin, reference compound]  Enterococcus faecalis 29212                2
3  O=C1c2ccccc2C(=O)N1c1nc2ccc(Oc3ccccc3)cc2s1  Enterococcus faecalis 29212               32

q: What value of MIC has been reported for the following compound? `O=C1c2ccccc2C(=O)N1c1nc2ccc(C(F)(F)F)cc2s1`
a: 64

q: Lookup `COc1ccc2nc(N3C(=O)c4ccccc4C3=O)sc2c1`
a: 64

q: Lookup `O=C1c2ccccc2C(=O)N1c1nc2ccc(O)cc2s1`
a: 32

q: Lookup `O=C1c2ccccc2C(=O)N1c1nc2ccccc2s1`
a: 64

----------
test system: Pseudomonas aeruginosa 27853; assay: Broth microdilution, P. aeruginosa ATCC 27853; assay type: cell-based; conditions: 24 h, 37 °C
Measurement Type: MIC (µg/mL)
// return numeric value only (unit: µg/mL, not printed)

In [3]: df
Out[3]:
                                   compound                  assay_system  measurement_type  units_of_measure  measured_result
0  O=C1c2ccccc2C(=O)N1c1nc2ccc(Oc3ccccc3)cc2s1  Pseudomonas aeruginosa 27853               MIC             µg/mL               32

q: What value of MIC has been reported for the following compound? `COc1ccc2nc(N3C(=O)c4ccccc4C3=O)sc2c1`
a: 64

q: Lookup `O=C1c2ccccc2C(=O)N1c1nc2ccccc2s1`
a: 64

q: Lookup `O=C1c2ccccc2C(=O)N1c1nc2ccc(F)cc2s1`
a: 64

q: Lookup `COc1cc2nc(N3C(=O)c4ccccc4C3=O)sc2cc1OC`
a: 64

q: Lookup `O=C1c2ccccc2C(=O)N1c1nc2ccc(C(F)(F)F)cc2s1`
a: 128

q: Lookup `O=C1c2ccccc2C(=O)N1c1nc2ccc(O)cc2s1`
a: 64

q: Lookup C[C@H]1COc2c(N3CCN(C)CC3)c(F)cc3c(=O)c(C(=O)O)cn1c23 [levofloxacin, reference compound]
a: 4

----------
test system: Candida parapsilosis 22019; assay: Antifungal microdilution, C. parapsilosis ATCC 22019; assay type: cell-based; conditions: microdilution CLSI M27-A3, 48 h, 37 °C, read-out: MIC C.p. 22019
Below, each entry is listed alongside its reported MIC.
// return numeric value only (unit: µg/mL, not printed)

Worked cases, answers included:
Compound	MIC, µg/mL
O=C1c2ccccc2C(=O)N1c1nc2ccccc2s1	32
O=C1c2ccccc2C(=O)N1c1nc2ccc(F)cc2s1	32
O=C1c2ccccc2C(=O)N1c1nc2ccc(C(F)(F)F)cc2s1	64
C[C@@H]1[C@H](O)[C@@H](C)/C=C/C=C/C=C/C=C/C=C/C=C/C=C/[C@H](O[C@@H]2O[C@H](C)[C@@H](O)[C@H](N)[C@@H]2O)C[C@@H]2O[C@](O)(C[C@@H](O)C[C@@H](O)[C@H](O)CC[C@@H](O)C[C@@H](O)CC(=O)O[C@H]1C)C[C@H](O)[C@H]2C(=O)O [amph B, amphotericin B, reference compound]	2

q: What value of MIC has been reported for the following compound? `O=C1c2ccccc2C(=O)N1c1nc2ccc(Oc3ccccc3)cc2s1`
a: 16

q: Lookup `COc1ccc2nc(N3C(=O)c4ccccc4C3=O)sc2c1`
a: 32

q: Lookup `COc1cc2nc(N3C(=O)c4ccccc4C3=O)sc2cc1OC`
a: 32

q: Lookup `O=C1c2ccccc2C(=O)N1c1nc2ccc(O)cc2s1`
a: 32

----------
Below, each entry is listed alongside its reported melting point.

In [3]: df
Out[3]:
                                 compound  measured_result
0  COc1cc2nc(N3C(=O)c4ccccc4C3=O)sc2cc1OC         > 250 °C

Please find the next compound below.
q: What value of melting point has been reported for the following compound? `O=C1c2ccccc2C(=O)N1c1nc2ccc(F)cc2s1`
a: 234 to 235 °C

----------
tested on: MCF-7 cells; experiment: MTT cell viability assay, MCF-7; assay type: cell-based, human; conditions: Homo sapiens, MCF7, 72 h exposure, mean ± SD
Lab note: compare IC50 with 90 µM, writing 1.0 if less and 0.0 if equal or more.

>>> print(df.to_string())
                                   molecule  category_label
0  COc1ccc2nc(N3C(=O)c4ccccc4C3=O)sc2c1 [3e]             0.0

q: I'd appreciate it if you could check whether O=C1c2ccccc2C(=O)N1c1nc2ccc(Oc3ccccc3)cc2s1 [3h] has IC50 smaller than 90 µM.
a: 1.0

q: Lookup COc1cc2nc(N3C(=O)c4ccccc4C3=O)sc2cc1OC [3f]
a: 0.0

q: Lookup O=C1c2ccccc2C(=O)N1c1nc2ccc(C(F)(F)F)cc2s1 [3c]
a: 0.0

q: Lookup Cc1ccc2nc(N3C(=O)c4ccccc4C3=O)sc2c1 [3d]
a: 1.0

q: Lookup O=C1c2ccccc2C(=O)N1c1nc2ccc(O)cc2s1 [3g]
a: 1.0

q: Lookup O=C1c2ccccc2C(=O)N1c1nc2ccccc2s1 [3a]
a: 0.0

q: Lookup O=C1CCC(N2C(=O)c3ccccc3C2=O)C(=O)N1 (stereo not drawn) [thalidomide, reference compound]
a: 0.0

----------
Below, each entry is listed alongside its reported melting point.

Worked cases, answers included:
                               compound  measurement_type  measured_result
0   Cc1ccc2nc(N3C(=O)c4ccccc4C3=O)sc2c1     melting point         > 250 °C
1  COc1ccc2nc(N3C(=O)c4ccccc4C3=O)sc2c1     melting point    227 to 229 °C
2   O=C1c2ccccc2C(=O)N1c1nc2ccc(O)cc2s1     melting point         > 250 °C

Please find the next compound below.
q: What value of melting point has been reported for the following compound? `O=C1c2ccccc2C(=O)N1c1nc2ccccc2s1`
a: 249 to 250 °C
